Assignment: determine reported IC50 for the given molecules.
# tgt: Cyclin-dependent kinase 4/cyclin D1 (Homo sapiens)
# measurementProtocol: Inhibitory activity against Cyclin D1-cyclin-dependent kinase 4 in enzymatic assay by measuring phosphorylation of RbING
# Format: protein-complex assay
Give bare numbers, in nM.

Sample answers from the record:
mol=CCn1ccc2ccc3c4[nH]c5ccccc5c4c4c(c3c21)C(=O)NC4=O tgt="Cyclin-dependent kinase 4/cyclin D1 (Homo sapiens)" reportedresult=59
mol=O=C1NC(=O)c2c1c1c(ccc3cc[nH]c31)c1[nH]c3ccccc3c21 tgt="Cyclin-dependent kinase 4/cyclin D1 (Homo sapiens)" reportedresult=36
mol=CCc1ccc2c(c1)[nH]c1c3ccc4ccn(C)c4c3c3c(c21)C(=O)NC3=O tgt="Cyclin-dependent kinase 4/cyclin D1 (Homo sapiens)" reportedresult=101

Ask: May I ask what IC50 has been recorded for Cn1ccc2ccc3c4[nH]c5c(CCN[C@H]6CC[C@H](O)CC6)cccc5c4c4c(c3c21)C(=O)NC4=O ?
Reply: 53

###

Kindly state IC50 for each of the entries shown.
# tgt: cAMP-dependent protein kinase (PKA) (Homo sapiens, UniProt P22694+P17612+P22612)
# measurementProtocol: Inhibitory activity against Protein kinase A (Histone)
# Format: protein assay
Give bare numbers, in µM.

mol=COc1ccc2c3c4c(c5c(ccc6ccn(C)c65)c3n(CCNCCO)c2c1)C(=O)NC4=O reportedresult=3.74

Now look at this entry.
Ask: Param item = COc1ccc2c3c4c(c5c(ccc6ccn(C)c65)c3n(CCN[C@H]3CC[C@H](O)CC3)c2c1)C(=O)NC4=O ; retrieve measured IC50.
Reply: 18

###

# tgt: CaM kinase II (Homo sapiens, UniProt Q13557+Q13555+Q13554+Q9UQM7)
# measurementProtocol: Inhibitory activity against Calcium/calmodulin-dependent protein kinase type II
# Type: protein assay
propertyMeasured: log10 IC50 (log10 of the value in µM)
Please keep in mind that the values are log10 of IC50 expressed in µM.

Some compounds with recorded log10 IC50:
mol=COc1ccc2c3c4c(c5c(ccc6ccn(C)c65)c3n(CCCN3CCC(C(N)=O)CC3)c2c1)C(=O)NC4=O propertymeasured="log10 IC50" reportedresult=0.48
mol=Cn1ccc2ccc3c4[nH]c5c(CCN6CCOCC6)cccc5c4c4c(c3c21)C(=O)NC4=O propertymeasured="log10 IC50" reportedresult=-0.75
mol=Cn1ccc2ccc3c4[nH]c5c(CCN6CCC[C@H]6CO)cccc5c4c4c(c3c21)C(=O)NC4=O propertymeasured="log10 IC50" reportedresult=-1.05
mol=CN1CCN(CCCc2cccc3c2[nH]c2c4ccc5ccn(C)c5c4c4c(c32)C(=O)NC4=O)CC1 propertymeasured="log10 IC50" reportedresult=-0.42
mol=CCN(CC)CCCc1cccc2c1[nH]c1c3ccc4ccn(C)c4c3c3c(c21)C(=O)NC3=O propertymeasured="log10 IC50" reportedresult=-0.76

Please go through the list and note log10 IC50 for each compound.
1. Cn1ccc2ccc3c4[nH]c5c(CCN6CCC(O)CC6)cccc5c4c4c(c3c21)C(=O)NC4=O
2. COc1ccc2c3c4c(c5c(ccc6ccn(C)c65)c3n(CCCN3CCC(O)CC3)c2c1)C(=O)NC4=O
3. COc1ccc2c3c4c(c5c(ccc6ccn(C)c65)c3n(CCN[C@H]3CC[C@H](O)CC3)c2c1)C(=O)NC4=O
4. Cn1ccc2ccc3c4[nH]c5c(CCN6CCCCC6)cccc5c4c4c(c3c21)C(=O)NC4=O
5. Cn1ccc2ccc3c4[nH]c5c(CCN6CCSCC6)cccc5c4c4c(c3c21)C(=O)NC4=O
6. Cn1ccc2ccc3c4[nH]c5c(CCNCCO)cccc5c4c4c(c3c21)C(=O)NC4=O
7. COc1ccc2c3c4c(c5c(ccc6ccn(C)c65)c3n(CCNCCO)c2c1)C(=O)NC4=O

Reply:
[-1.34, 0.50, 0.07, -1.21, -0.39, -1.02, -0.28]

###

# tgt: Cyclin-dependent kinase 4/cyclin D1 (Homo sapiens, UniProt P11802)
# Sequence (P11802 whole entry): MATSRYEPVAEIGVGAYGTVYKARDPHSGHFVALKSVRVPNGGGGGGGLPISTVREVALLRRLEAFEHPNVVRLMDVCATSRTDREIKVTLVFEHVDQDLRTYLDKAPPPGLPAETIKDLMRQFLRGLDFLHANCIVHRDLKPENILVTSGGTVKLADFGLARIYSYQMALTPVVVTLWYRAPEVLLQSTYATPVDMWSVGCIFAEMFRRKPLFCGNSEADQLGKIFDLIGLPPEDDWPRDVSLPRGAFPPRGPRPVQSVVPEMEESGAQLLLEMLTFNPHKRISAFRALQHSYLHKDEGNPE
# Sequence (P24385 whole entry, further chain): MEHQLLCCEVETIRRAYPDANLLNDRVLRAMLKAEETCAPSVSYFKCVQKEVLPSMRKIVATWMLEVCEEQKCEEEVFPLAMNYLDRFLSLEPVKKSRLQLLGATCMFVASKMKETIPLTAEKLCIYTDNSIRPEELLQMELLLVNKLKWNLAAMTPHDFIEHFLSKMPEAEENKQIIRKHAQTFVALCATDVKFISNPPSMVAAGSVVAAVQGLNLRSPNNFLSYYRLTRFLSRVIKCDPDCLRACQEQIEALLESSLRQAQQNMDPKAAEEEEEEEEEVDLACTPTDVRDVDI
# measurementProtocol: Inhibitory activity against Cyclin D1-cyclin-dependent kinase 4 in enzymatic assay by measuring phosphorylation of RbING
# Assay type: protein-complex assay
Please go through the items and note down their IC50.
Give bare numbers, in nM.

Consider the following illustrative entries.
mol=Cn1ccc2ccc3c4[nH]c5c(CCO)cccc5c4c4c(c3c21)C(=O)NC4=O propertymeasured=IC50 units=nM reportedresult=82
mol=COC(=O)C1CCN(CCc2cccc3c2[nH]c2c4ccc5ccn(C)c5c4c4c(c32)C(=O)NC4=O)CC1 propertymeasured=IC50 units=nM reportedresult=47
mol=COc1ccc2c3c4c(c5c(ccc6ccn(C)c65)c3n(CCCN3CCN(C)CC3)c2c1)C(=O)NC4=O propertymeasured=IC50 units=nM reportedresult=95
mol=O=C1NC(=O)c2c1c1c(ccc3cc[nH]c31)c1[nH]c3cc(OCc4ccccc4)ccc3c21 propertymeasured=IC50 units=nM reportedresult=187
mol=COc1ccc2c3c4c(c5c(ccc6ccn(C)c65)c3n(CCO)c2c1)C(=O)NC4=O propertymeasured=IC50 units=nM reportedresult=47

Hey, quick one: what's IC50 for each of these?
1. Cn1ccc2ccc3c4[nH]c5c(CCNCCO)cccc5c4c4c(c3c21)C(=O)NC4=O
2. O=C1NC(=O)c2c1c1c3ccccc3[nH]c1c1[nH]c3ccccc3c21
3. Cn1ccc2ccc3c4[nH]c5c(CCN6CCNCC6)cccc5c4c4c(c3c21)C(=O)NC4=O
4. Cn1ccc2ccc3c4[nH]c5cc(C(F)(F)F)ccc5c4c4c(c3c21)C(=O)NC4=O

Reply:
1: 33; 2: 140; 3: 49; 4: 76

###

# tgt: cAMP-dependent protein kinase (PKA) (Homo sapiens, UniProt P22694+P17612+P22612)
# measurementProtocol: Inhibitory activity against Protein kinase A (Histone)
# Type: protein assay
propertyMeasured: IC50 (µM)
Numbers only, in µM.

mol=COc1ccc2c3c4c(c5c(ccc6ccn(C)c65)c3n(CCO)c2c1)C(=O)NC4=O reportedresult=1.62
mol=COc1ccc2c(c1)[nH]c1c3ccc4cc[nH]c4c3c3c(c21)C(=O)NC3=O reportedresult=11.4
mol=Cn1ccc2ccc3c4[nH]c5c(CCN6CCC(C(N)=O)CC6)cccc5c4c4c(c3c21)C(=O)NC4=O reportedresult=5.89
mol=Cn1ccc2ccc3c4[nH]c5c(CCN[C@H]6CC[C@H](O)CC6)cccc5c4c4c(c3c21)C(=O)NC4=O reportedresult=9.81
mol=COc1ccc2c3c4c(c5c(ccc6ccn(C)c65)c3n(CCCNCCO)c2c1)C(=O)NC4=O reportedresult=3.15

Can you give me IC50 for all of these, one by one?
1. Cn1ccc2ccc3c4[nH]c5c(CCN6CCCCC6)cccc5c4c4c(c3c21)C(=O)NC4=O
2. COc1ccc2c3c4c(c5c(ccc6ccn(C)c65)c3n(CCCN3CCC(O)CC3)c2c1)C(=O)NC4=O

Reply:
9.14
2.81

Take each entry in turn and give its IC50.
1. Cc1cc2ccn(C)c2c2c3c(c4c5ccccc5n(C)c4c12)C(=O)NC3=O
2. CCn1ccc2ccc3c(c4c(c5c6ccccc6n(CCCO)c35)C(=O)NC4=O)c21

Reply:
1. 3.9
2. 5.31

###

# tgt: Cyclin-dependent kinase 2/cyclin E (Homo sapiens)
# measurementProtocol: Inhibitory activity against Cyclin E-cyclin-dependent kinase 2 in enzymatic assay by measuring phosphorylation of RbING
Kindly supply the reported log10(IC50) values for the records listed here.
Values are log10 of IC50 in nM.

Recorded log10(IC50), per entry:
mol=Cc1ccc2[nH]c3c4ccc5ccn(C)c5c4c4c(c3c2c1)C(=O)NC4=O reportedresult=3.03
mol=Cn1ccc2ccc3c4[nH]c5c(CCCNCCO)cccc5c4c4c(c3c21)C(=O)NC4=O reportedresult=2.75
mol=Cn1ccc2ccc3c4[nH]c5c(CCN[C@H]6CC[C@H](O)CC6)cccc5c4c4c(c3c21)C(=O)NC4=O reportedresult=2.65

For each entry beneath this line, provide reported log10(IC50).
1. Cn1ccc2cc(F)c3c4[nH]c5ccccc5c4c4c(c3c21)C(=O)NC4=O
2. O=C1NC(=O)c2c1c1c(ccc3cc[nH]c31)c1[nH]c3cc(O)ccc3c21
3. Cn1ccc2ccc3c4[nH]c5c(CCN6CCC(O)CC6)cccc5c4c4c(c3c21)C(=O)NC4=O
4. O=C1NC(=O)c2c1c1c(ccc3cc[nH]c31)c1[nH]c3ccccc3c21
5. COc1ccc2c3c4c(c5c(ccc6ccn(C)c65)c3n(CCCO)c2c1)C(=O)NC4=O

Reply:
1: 1.93; 2: 0.78; 3: 2.99; 4: 1.81; 5: 2.05

###

# tgt: Cyclin-dependent kinase 4/cyclin D1 (Homo sapiens)
# measurementProtocol: Inhibitory activity against Cyclin D1-cyclin-dependent kinase 4 in enzymatic assay by measuring phosphorylation of Rb21
# Format: protein-complex assay
Exercise: state measured pIC50 for each of the molecules provided.
Answers are plain numbers, as −log10 of the molar value.

mol=CCN(CC)CCCc1cccc2c1[nH]c1c3ccc4ccn(C)c4c3c3c(c21)C(=O)NC3=O reportedresult=7.62
mol=Cn1ccc2ccc3c4[nH]c5c(CCCN6CCOCC6)cccc5c4c4c(c3c21)C(=O)NC4=O reportedresult=7.37

List pIC50 for every entry below, keeping the order given.
1. COc1ccc2c3c4c(c5c(ccc6ccn(C)c65)c3n(CCCNCCO)c2c1)C(=O)NC4=O
2. Cn1ccc2ccc3c4[nH]c5cc(F)ccc5c4c4c(c3c21)C(=O)NC4=O
3. CCOc1ccc2c(c1)[nH]c1c3ccc4ccn(C)c4c3c3c(c21)C(=O)NC3=O

Reply:
7.55
7.96
8.00
